Molecular target: Coagulation factor VII (Homo sapiens) (UniProt P08709)
Sequence (P08709 61-212 limits assumed): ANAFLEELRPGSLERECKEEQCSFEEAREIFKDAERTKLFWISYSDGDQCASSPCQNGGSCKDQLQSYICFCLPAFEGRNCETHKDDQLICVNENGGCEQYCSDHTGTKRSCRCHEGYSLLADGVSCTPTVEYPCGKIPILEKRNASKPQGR
Sequence (P08709 213-466 limits assumed): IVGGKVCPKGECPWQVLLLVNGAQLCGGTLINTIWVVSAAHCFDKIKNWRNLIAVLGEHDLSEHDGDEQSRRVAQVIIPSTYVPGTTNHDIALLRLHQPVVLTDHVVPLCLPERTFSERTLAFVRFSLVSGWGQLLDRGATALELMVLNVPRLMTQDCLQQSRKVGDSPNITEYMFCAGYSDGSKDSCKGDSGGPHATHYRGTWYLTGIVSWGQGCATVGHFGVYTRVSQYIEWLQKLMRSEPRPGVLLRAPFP
Test: Inhibition of human factor 7a assessed as residual activity at 500 uM by spectrophotometric assay
OBSERVED PROPERTY: Activity (%)
Answers are plain numbers, in %.

Worked examples, 2 compounds total:
COMPOUND STRING: CCOC(=O)c1c(COc2cc3c(C(=O)OCC)c(Cc4ccccc4)oc3cc2OC)[nH]c2ccc(OS(=O)(=O)O)cc12
UNIT NAME: %
Activity: 109
--
COMPOUND STRING: CCOC(=O)c1c(C)oc2cc(OC)c(OCc3oc4cc(OC)c(OCc5nc6ccc(OS(=O)(=O)O)cc6s5)cc4c3C(=O)OCC)cc12
UNIT NAME: %
Activity: 100

Query compound follows.
stdin: So what does the record say about Activity for CCOC(=O)c1c(C)[nH]c2ccc(OS(=O)(=O)O)cc12 ?
stdout: 90
